System: DMS 273 small cell lung
assayInfo: NCI tumour cell line growth inhibition, 48 h
measure: TGI

Reference set, count: 3
OC1CCC[C@@H]1Sc1ccccc1 (some centres undefined) | > 100 µM
CCN(CC)CCNc1ccc2nnn3c4ccccc4c(=O)c1c23 | 14.3 µM
COC(=O)C(=O)C(C(=O)C=C(C)C)C(=O)C(=O)Nc1nc2ccc([N+](=O)[O-])cc2s1 (centres undefined) | > 100 µM

// returns reported TGI for input O=C1C(=O)N(c2cccc(C(F)(F)F)c2)C(=O)C(=O)C1c1nc2ccccc2s1
> 100 µM

Thanks! And CC(=O)NC(CCCCN(Cc1ccccc1)C(=O)N(CCCl)N=O)C(=O)NCc1ccccc1 (centres undefined) ?
> 100 µM

Input C=CCc1cccc(/C=N\N=C(/N)NO)c1O
16.5 µM

Field entry: O=C1C2ON3c4ccccc4C(=O)C3(c3ccccc3)C2C(=O)N1c1ccccc1 (centres undefined)
> 100 µM

Do the same for O=C(O)CCSC(=S)Nc1cccc(F)c1 please
> 100 µM

What do we get for O=C(O)c1nccnc1C(=O)O ?
> 100 µM
